# Test system: HT29 colon
# PROTOCOL_SUMMARY: NCI-60 one-dose screen, 48 h (100 = growth as untreated, 0 = no growth, -100 = all killed)
# CONDITIONS_USED: 10 µM unless noted
The panel holds about 83,000 compounds, 20% with a hit somewhere; the sample as a whole holds those more often.
Note to self: growth under 50% means satisfied, ties and anything higher get not satisfied.

Here are 8 compounds together with their reported answers.
Please check: growth for Brc1ccc2[nH]cc(-c3nn4cc(-c5nccs5)nc4s3)c2c1 , strictly under 50% or not?
satisfied

Input CN1CCN(Cc2ccc(NC(=O)c3cncc(C#Cc4cnc5ccc(OCC(F)F)nn45)c3)cc2C(F)(F)F)CC1 ; condition: growth strictly below 50%. Does it hold?
satisfied

Answer whether the compound CC1(C)C=Cc2cc(/C(N)=N/C(N)=N/c3nc4ccccc4s3)ccc2O1 has growth strictly less than 50%
not satisfied

Please indicate whether the reported growth of CCC1=Cc2c(OC)cccc2OC12C=Cc1c(OC)cccc1O2 (centres undefined) is strictly below 50%.
satisfied

State whether 50% exceeds growth recorded for Cc1ccccc1Nc1nc(SC(C)C)nc(-c2ccccc2)c1C#N .
not satisfied

I wonder whether CC(=O)OC[C@]12CC[C@@H](C(=O)/C=C/c3cccnc3)[C@@H]1[C@H]1CC[C@@H]3[C@@]4(C)CC[C@H](OC(C)=O)C(C)(C)[C@@H]4CC[C@@]3(C)[C@]1(C)CC2 has growth below 50%. Can you tell?
satisfied

Please check: growth for Cc1ccc2c(n1)C(=O)C(Cl)=C(Nc1cccc(C)c1C)C2=O , strictly under 50% or not?
not satisfied

Please check: growth for COc1cc(/C=N\NC(=O)c2ccc3nc(-c4ccc(Br)cc4)[nH]c3c2)cc(OC)c1OC , strictly under 50% or not?
satisfied

Okay, next one:
hey, is growth for CN1CCN(Cc2ccc(NC(=O)c3cncc(C#Cc4cnc5ccc(N6CCOCC6)nn45)c3)cc2C(F)(F)F)CC1 lower than 50% or not?
satisfied
